Provide the reported Chip Fluorescence (mean) of each item.
Tested on: GST-tagged Cn
protocol-summary: PEPperPRINT peptide microarray binding assay with GST-tagged Cn
test-conditions: GST-tagged Cn, mean over the chip spots listed under Location on chip
One number for each entry.

Guide cases for Chip Fluorescence (mean), answers given:
TFWSNPQFRITLEEPD [SeqRBMlowT_9100] : -0.206
KDKAGKRSHLKGHSES [Seqshuffled_5410] : -0.09052
TFWTNPQYKIKLEDPD [SeqRBMlowT_629] : -0.07489
RNPGQALLELRGHSAS [SeqRBMlowT_6125] : -0.3301
TFWTNPQYRLKIPQVD [SeqRBMlowT_9671] : -0.5687

Shift focus to the following entry.
Task: Entry under review: VQLKIPQLRVSSVSKP [SeqLCORL_2_Sus_scrofa] . Reported Chip Fluorescence (mean)?
Output: -0.5484
